measurement.target: Tubulin (Sus scrofa) (UniProt P02554+P02550)
Sequence (P02550 whole entry, looked up): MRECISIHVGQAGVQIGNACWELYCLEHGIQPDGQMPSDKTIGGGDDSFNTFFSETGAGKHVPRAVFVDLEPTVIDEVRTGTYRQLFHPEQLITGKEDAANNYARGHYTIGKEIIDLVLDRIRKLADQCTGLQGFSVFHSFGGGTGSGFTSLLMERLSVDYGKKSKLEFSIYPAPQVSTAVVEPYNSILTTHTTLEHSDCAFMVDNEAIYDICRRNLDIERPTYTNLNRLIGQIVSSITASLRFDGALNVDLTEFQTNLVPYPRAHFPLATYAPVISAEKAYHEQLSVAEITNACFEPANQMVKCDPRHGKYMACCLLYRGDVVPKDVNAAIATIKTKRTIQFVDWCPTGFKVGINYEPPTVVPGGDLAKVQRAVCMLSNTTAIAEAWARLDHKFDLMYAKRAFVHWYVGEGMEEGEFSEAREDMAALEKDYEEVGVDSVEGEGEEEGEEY
Sequence (P02554 whole entry, looked up): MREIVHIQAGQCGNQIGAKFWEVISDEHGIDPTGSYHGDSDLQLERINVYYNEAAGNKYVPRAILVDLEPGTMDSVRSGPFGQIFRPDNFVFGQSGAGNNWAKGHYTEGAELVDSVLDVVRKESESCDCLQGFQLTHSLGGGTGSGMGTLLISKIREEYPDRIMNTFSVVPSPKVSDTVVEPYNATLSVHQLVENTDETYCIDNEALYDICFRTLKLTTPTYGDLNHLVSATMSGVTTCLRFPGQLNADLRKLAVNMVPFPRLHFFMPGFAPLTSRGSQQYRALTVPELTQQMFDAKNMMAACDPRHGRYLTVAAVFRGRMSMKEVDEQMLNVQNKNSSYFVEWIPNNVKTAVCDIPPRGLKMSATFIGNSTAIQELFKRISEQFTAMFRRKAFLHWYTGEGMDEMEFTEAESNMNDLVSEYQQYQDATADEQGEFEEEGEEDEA
protocol: Displacement of [3H]Vinblastine from pig tubulin at 7.2 x 10^-5 M after 60 mins
Format: protein assay
result.type: inhibition (%)
Expressed in %, but write only the number.

Q) GET /values?readout=inhibition&system=Tubulin (Sus scrofa) (UniProt P02554+P02550)&item= `CC[C@]1(O)C[C@H]2CN(CCc3c([nH]c4ccccc34)[C@@](C(=O)OC)(c3cc4c(cc3OC)N(C)[C@H]3[C@@](O)(C(=O)OC)[C@H](OC(C)=O)[C@]5(CC)CCCN6CC[C@]43[C@@H]65)C2)C1`
A) 77.4

Q) Okay, and `CC[C@]1(O)C[C@H]2CN(CCc3c([nH]c4ccccc34)[C@@](C(=O)OC)(c3cc4c(cc3OC)N(C)[C@@H]3[C@]45CCCN4CC=C[C@@](CC)(C[C@]3(O)C(=O)OC)[C@H]45)C2)C1` ?
A) 68.5

Q) Okay, and `CC[C@]1(O)C[C@@H]2CN(CCc3c([nH]c4ccccc34)[C@@](C(=O)OC)(c3cc4c(cc3OC)N(C)[C@H]3[C@@](O)(C(=O)OC)[C@H](OC(C)=O)[C@]5(CC)C=CCN6CC[C@]43[C@@H]65)C2)C1` ?
A) 50

Q) Okay, and `CC[C@]1(O)C[C@H]2CN(CCc3c([nH]c4ccccc34)[C@@](C(=O)OC)(c3cc4c(cc3OC)N(C)[C@H]3[C@@](O)(C(=O)OC)[C@H](OC(C)=O)[C@]5(CC)CCN6CCC[C@]43[C@@H]65)C2)C1` ?
A) 48.4
